- TARGET OR TEST SYSTEM: CDK5/p25 (Homo sapiens)
- Construct: made in house
- Sequence (Q00535 whole entry): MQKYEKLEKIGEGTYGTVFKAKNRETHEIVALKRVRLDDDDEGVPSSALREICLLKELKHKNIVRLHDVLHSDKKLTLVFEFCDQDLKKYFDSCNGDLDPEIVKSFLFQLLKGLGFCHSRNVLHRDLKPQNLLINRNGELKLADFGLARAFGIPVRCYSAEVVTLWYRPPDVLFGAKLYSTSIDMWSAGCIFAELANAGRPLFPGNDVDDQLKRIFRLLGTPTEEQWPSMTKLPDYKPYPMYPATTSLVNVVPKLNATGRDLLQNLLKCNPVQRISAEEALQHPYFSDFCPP
- Sequence (Q15078 99-307 partner limits assumed): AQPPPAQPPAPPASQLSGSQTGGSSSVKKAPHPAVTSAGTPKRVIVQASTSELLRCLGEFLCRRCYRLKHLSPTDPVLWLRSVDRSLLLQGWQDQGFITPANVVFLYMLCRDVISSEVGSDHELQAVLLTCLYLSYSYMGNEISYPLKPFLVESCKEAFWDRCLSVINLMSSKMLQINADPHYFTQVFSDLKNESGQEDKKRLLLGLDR
- ASSAY DETAILS: CDK5/p25 kinase assay
- Format: biochemical
- CONDITION NOTES: read-out: Inhibition of CDK5/p25, IC50
pIC50: −log10 of the molar value.
REPORTED PROPERTY: pIC50

Some solved cases for reference:
# COMPOUND, pIC50
data = [
    ("CC[C@@H](N)COc1cc(NCc2ccc(-c3ccccc3)cc2)c2ncn(C(C)C)c2n1", 6.26),
    ("CC(C)n1cnc2c(NCc3ccc(-c4ccccn4)cc3)cc(NC[C@H](O)CO)nc21", 6.77),
]

[A] CC(C)n1cnc2c(NCc3ccc(-c4ccccn4)cc3)cc(NC(CO)[C@@H](C)O)nc21 (stereo in doubt)
[B] CC[C@H](CO)Nc1cc(NCc2ccc(-c3ccccc3)cc2)c2ncn(C(C)C)c2n1
Of the two listed items, which has the higher pIC50? First: A Second: B Give the label under which the chosen entry appears.
A
(A: 6.74, B: 6.09)

----------
- TARGET OR TEST SYSTEM: DYRK1A (Homo sapiens, UniProt Q13627)
- ASSAY DETAILS: DYRK1A kinase assay
- Assay type: biochemical
- CONDITION NOTES: Table 5; read-out: DYRK1A
pIC50: −log10 of the molar value.
REPORTED PROPERTY: pIC50

Some entries whose results are on file:
# COMPOUND, REPORTED PROPERTY, READOUT NUMBER
rows = [
    ("CC[C@@H](CO)Nc1cc(NCc2ccc(-c3ccccn3)cc2)c2ncn(C(C)C)c2n1 [(S)-perharidine D]", "pIC50", 5.55),
    ("CC[C@H](CO)Nc1cc(NCc2ccc(-c3ccccn3)cc2)c2ncn(C(C)C)c2n1 [(R)-perharidine C]", "pIC50", 4.96),
]

[a] CC[C@@H](CO)Nc1cc(NCc2ccccc2)c2ncn(C(C)C)c2n1 [(S)-perharidine B]
[b] CC[C@H](CO)Nc1cc(NCc2ccccc2)c2ncn(C(C)C)c2n1 [(R)-perharidine A]
Which entry has a larger number for pIC50, a or b ? Lab log: write the label of the selected item as the result.
b
(b: 5.55, a: 4.66)

----------
Quick list: pIC50 per entry.
- Tested on: HEK 293 human embryonic kidney cell line
- ASSAY DETAILS: Cell survival (MTS assay), HEK293
- Assay type: cell-based
- CONDITION NOTES: HEK293, Table 6, MTS assay
Quick note: pIC50 means taking -log10 of the concentration in moles per liter.

# COMPOUND, READOUT NUMBER
measured = [
    ("CC[C@@H](CO)Nc1cc(NCc2ccccc2)c2ncn(C(C)C)c2n1 [(S)-perharidine B]", 4.35),
]

API: the following record is the query input.
The compound CC[C@H](CO)Nc1cc(NCc2ccccc2)c2ncn(C(C)C)c2n1 [(R)-perharidine A] , tested on HEK 293 human embryonic kidney cell line, showed pIC50 of 4.56

----------
- TARGET OR TEST SYSTEM: GSK-3α/β
- ASSAY DETAILS: GSK-3α/β kinase assay
- Type: biochemical, porcine
- CONDITION NOTES: Table 4; read-out: GSK3
pIC50: −log10 of the molar value.
REPORTED PROPERTY: pIC50

# COMPOUND, TARGET OR TEST SYSTEM, pIC50
records = [
    ("CC[C@H](CO)Nc1cc(NCc2ccccc2)c2ncn(C(C)C)c2n1 [(R)-perharidine A]", "GSK-3α/β", "< 4.52"),
    ("CC(C)n1cnc2c(NCc3ccccc3)cc(NC(=O)C(F)(F)F)nc21", "GSK-3α/β", "< 5.00"),
    ("CC(C)n1cnc2c(NCc3ccccc3)cc(N)nc21", "GSK-3α/β", "< 5.00"),
]

Read the next record carefully.
So, `CC(C)n1cnc2c(NCc3ccccc3)cc([N+](=O)[O-])nc21` ? Its pIC50 was < 5.00

----------
- TARGET OR TEST SYSTEM: GSK-3α/β
- ASSAY DETAILS: GSK-3α/β kinase assay
- Format: biochemical, porcine
- CONDITION NOTES: read-out: Inhibition of GSK3beta, IC50
pIC50: −log10 of the molar value.
REPORTED PROPERTY: pIC50

Check out these entries, answers already filled in.
# MOLECULE, RESULT
measured = [
    ("CC[C@H](N)COc1cc(NCc2ccc(-c3ccccc3)cc2)c2ncn(C(C)C)c2n1 [Ip]", 5.15),
    ("CC(C)n1cnc2c(NCc3ccc(-c4ccccn4)cc3)cc(NC[C@H](O)CO)nc21 [Ik]", "< 5.00"),
]

Record summary for CC[C@@H](CO)Nc1cc(NCc2ccc(-c3ccccc3)cc2)c2ncn(C(C)C)c2n1 [Il] : reported pIC50 = < 5.00
